Where do the numbers come from? From ChEMBL document CHEMBL2218924.

Target: Casein kinase I isoform delta (Homo sapiens) (UniProt P48730)
Sequence (P48730 whole entry, looked up, canonical isoform): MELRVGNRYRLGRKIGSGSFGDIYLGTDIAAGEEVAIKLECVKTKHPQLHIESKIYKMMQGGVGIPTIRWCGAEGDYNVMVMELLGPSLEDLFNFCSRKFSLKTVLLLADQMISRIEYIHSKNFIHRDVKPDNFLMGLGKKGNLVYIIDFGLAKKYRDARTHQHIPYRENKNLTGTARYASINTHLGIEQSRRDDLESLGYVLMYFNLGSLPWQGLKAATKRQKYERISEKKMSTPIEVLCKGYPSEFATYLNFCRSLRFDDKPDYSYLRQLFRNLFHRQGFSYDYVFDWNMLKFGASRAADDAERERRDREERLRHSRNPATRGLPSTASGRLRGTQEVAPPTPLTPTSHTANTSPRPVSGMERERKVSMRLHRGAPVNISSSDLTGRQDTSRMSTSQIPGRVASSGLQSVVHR
Conditions: at 1 µM
Description: Millipore: Percentage of residual kinase activity of CSNK1D at 1uM relative to control. Control inhibitor: Jnk Inhibitor II at 100.0uM. Buffer: 8 mM MOPS pH 7.0, 0.2 mM EDTA
A collection of compounds and their measured residual activity
# number only, unit % dropped from output

Here is how some compounds turned out for residual activity.
item-smiles: Cc1cccc(-c2[nH]c(C(C)(C)C)nc2-c2ccc3c(c2)OCO3)n1
residual activity, %: 69
//
item-smiles: Nc1nc(Nc2ccc(S(N)(=O)=O)cc2)nn1C(=S)Nc1c(F)cccc1F
residual activity, %: 59

Exercise: Param readout = residual activity; param system = Casein kinase I isoform delta (Homo sapiens) (UniProt P48730); param query = `Cc1cc2ncc(-c3ccccc3)nc2cc1C` ; response: value
Solution: 87

Exercise: Query the reported residual activity for Casein kinase I isoform delta (Homo sapiens) (UniProt P48730); item: `CCC(=O)Nc1ccc2ncnc(Nc3cccc(Br)c3)c2c1`
Solution: 97

Exercise: Report residual activity for `O=C(Nc1cccc(Nc2nccc(Nc3cccc(C(F)(F)F)c3)n2)c1)C1CC1` tested on Casein kinase I isoform delta (Homo sapiens) (UniProt P48730).
Solution: 82

Exercise: What measured residual activity is associated with `c1ccc2c(-c3ccncc3)c[nH]c2c1` on Casein kinase I isoform delta (Homo sapiens) (UniProt P48730)?
Solution: 85

Exercise: Please tell me: residual activity of `O=c1cc(-c2cccc3c2Sc2ccccc2S3)oc(N2CCOCC2)c1` , system Casein kinase I isoform delta (Homo sapiens) (UniProt P48730)?
Solution: 92

---

Target: Homeodomain-interacting protein kinase 1 (Homo sapiens)
Settings: at 1 µM
Description: Millipore: Percentage of residual kinase activity of HIPK1 at 1uM relative to control. Control inhibitor: Phosphoric acid* at 0.3uM. Buffer: 8 mM MOPS pH 7.0, 0.2 mM EDTA
property-label: residual activity (%)
Express your answer in %, writing the number without its unit.

Known residual activity results, listed for orientation:
item-smiles: O=C1NC(=O)/C(=C\c2ccc3nccnc3c2)S1
residual activity (%): 83

item-smiles: NC(=O)c1ccc2[nH]c(-c3ccc(Oc4ccc(Cl)cc4)cc3)nc2c1
residual activity (%): 104

item-smiles: CO[C@H]1[C@@H](OC)C[C@H](C)[C@@H](OC)C2=CC(=O)C=C(NC(=O)/C(C)=C/C=C/[C@H](OC)[C@@H](OC(N)=O)/C(C)=C/[C@@H]1C)C2=O
residual activity (%): 102

item-smiles: CN(C)CCCn1cc(C2=C(c3c[nH]c4ccccc34)C(=O)NC2=O)c2ccccc21
residual activity (%): 90

item-smiles: O=c1c2ccccc2[nH]c(=S)n1CCN1CCC(=C(c2ccc(F)cc2)c2ccc(F)cc2)CC1
residual activity (%): 94

item-smiles: COc1cc2ncnc(Nc3ccc(NC(=O)c4ccccc4)cc3)c2cc1OC
residual activity (%): 102

item-smiles: O=C(Nc1cccc(Nc2cc(Nc3cccc(C(F)(F)F)c3)ncn2)c1)C1CC1
residual activity (%): 104

item-smiles: Cc1cc2ncc(-c3ccccc3)nc2cc1C
residual activity (%): 94

Exercise: What reported residual activity corresponds to `COc1ccc(CNc2nc(N(CCO)CCO)nc3c2ncn3C(C)C)cc1` on Homeodomain-interacting protein kinase 1 (Homo sapiens)?
Solution: 102

Exercise: Field: residual activity (Homeodomain-interacting protein kinase 1 (Homo sapiens)). Entry: `Cc1ccc(NC2=CC(=O)c3sc(C)nc3C2=O)cc1`
Solution: 100

Exercise: Short answer please: residual activity, Homeodomain-interacting protein kinase 1 (Homo sapiens), entry `Cc1cncc2cccc(S(=O)(=O)N3CCCN(C(=O)CN)C[C@H]3C)c12`
Solution: 94

Exercise: Lookup: residual activity / Homeodomain-interacting protein kinase 1 (Homo sapiens) / `Nc1nc(Nc2ccc(S(N)(=O)=O)cc2)nn1C(=S)Nc1c(F)cccc1F`
Solution: 30

Exercise: Enter reported residual activity observed with Homeodomain-interacting protein kinase 1 (Homo sapiens) for `Cc1nc(-c2ccccc2)c(-c2ccncc2)o1`
Solution: 107

Exercise: Homeodomain-interacting protein kinase 1 (Homo sapiens) / residual activity / `Ic1cccc(CSc2nnc(-c3ccncc3)o2)c1` : value?
Solution: 101

Exercise: Lookup: residual activity / Homeodomain-interacting protein kinase 1 (Homo sapiens) / `N#CC(C#N)=C(N)/C(C#N)=C/c1ccc(O)cc1`
Solution: 97

Exercise: Lab note: need residual activity with Homeodomain-interacting protein kinase 1 (Homo sapiens) for entry `Oc1n[nH]c2nnc(-c3c(-c4ccccc4)nn4ccccc34)cc12` , please look it up.
Solution: 98

Exercise: Item: `CCN(CC)CCCCN1c2ccccc2Oc2ccc(Cl)cc21` Test system: Homeodomain-interacting protein kinase 1 (Homo sapiens) Read-out: residual activity Value: ?
Solution: 103

Exercise: Lab note: need residual activity for `O=Nc1c(-c2c(O)[nH]c3ccccc23)[nH]c2ccccc12` on Homeodomain-interacting protein kinase 1 (Homo sapiens), anyone have it?
Solution: 90

Exercise: Give recorded residual activity with Homeodomain-interacting protein kinase 1 (Homo sapiens) for the following compound: `O=C1Nc2cc(Br)ccc2/C1=C1/Nc2ccccc2/C1=N\O`
Solution: 88
